SYSTEM_NAME: human natriuretic peptide receptor B (NPR-B) (human) (UniProt P20594)
Sequence (P20594 23-1047): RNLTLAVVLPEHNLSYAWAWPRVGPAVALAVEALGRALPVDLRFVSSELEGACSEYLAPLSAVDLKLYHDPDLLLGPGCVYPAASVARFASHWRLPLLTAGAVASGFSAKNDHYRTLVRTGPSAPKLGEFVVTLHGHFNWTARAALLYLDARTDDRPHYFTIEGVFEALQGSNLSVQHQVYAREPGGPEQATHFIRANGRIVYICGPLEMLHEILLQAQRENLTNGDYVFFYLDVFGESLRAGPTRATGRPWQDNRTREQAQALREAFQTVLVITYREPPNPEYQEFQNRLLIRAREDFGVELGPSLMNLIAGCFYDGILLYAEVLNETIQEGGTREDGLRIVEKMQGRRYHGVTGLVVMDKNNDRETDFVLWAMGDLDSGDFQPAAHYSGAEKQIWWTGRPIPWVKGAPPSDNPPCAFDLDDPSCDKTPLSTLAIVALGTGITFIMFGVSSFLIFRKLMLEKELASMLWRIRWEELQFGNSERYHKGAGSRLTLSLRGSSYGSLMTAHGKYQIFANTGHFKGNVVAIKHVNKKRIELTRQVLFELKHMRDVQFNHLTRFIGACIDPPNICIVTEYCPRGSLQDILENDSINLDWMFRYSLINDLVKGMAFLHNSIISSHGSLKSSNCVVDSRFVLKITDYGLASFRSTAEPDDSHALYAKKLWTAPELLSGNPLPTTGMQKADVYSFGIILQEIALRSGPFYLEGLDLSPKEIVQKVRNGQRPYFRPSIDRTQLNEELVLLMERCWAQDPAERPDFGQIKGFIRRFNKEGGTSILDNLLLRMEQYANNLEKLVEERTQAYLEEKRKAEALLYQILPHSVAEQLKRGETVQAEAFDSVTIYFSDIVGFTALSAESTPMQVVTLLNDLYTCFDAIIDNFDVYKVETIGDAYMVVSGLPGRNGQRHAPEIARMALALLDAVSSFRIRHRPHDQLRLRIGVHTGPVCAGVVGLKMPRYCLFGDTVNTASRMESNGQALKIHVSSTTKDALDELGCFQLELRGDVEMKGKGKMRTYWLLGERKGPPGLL
EXPERIMENT_NOTES: cell-based or functional assay
PARAMETER_MEASURED: Rescue Ratio Average
Give the value as a plain number.

Solved entries:
BINDER: EEEEEESGGGGSGGGQGANKQGLSKGCFGLKLDRIGSMSGLGC [C11(E6) [BC11]]
Rescue Ratio Average: 120
--
BINDER: GLSKGCFGLKLDRIGSMSGLGCGGGGSGGGGSGGGGDDDDDD [CNP-14AAlinker-D6 [C4]]
Rescue Ratio Average: 545
--
BINDER: EEEEEESGGGGSGGGGSGGGGGLSKGCFGLKLDRIGSMSGLGC [C1(E6) [BC1]]
Rescue Ratio Average: 122
--
BINDER: EEEEEESGGGGSGGGQGANQKGLSKGCFGLKLDRIGSMSGLGC [C10(E6) [BC10]]
Rescue Ratio Average: 90
--
BINDER: EEEEEESGGGGSGGGQGANKKGLSKGCFGLKLDRIGSMSGLGC [C8(E6) [BC8]]
Rescue Ratio Average: 52
--
BINDER: EEEEEESGGGGSGGGKGANKKGLSKGCFGLKLDRIGSMSGLGC [C4(E6) [BC4]]
Rescue Ratio Average: 18

query: Fill in the blank: the reported Rescue Ratio Average of EEEEEESGGGGSGGGKGANQKGLSKGCFGLKLDRIGSMSGLGC [C7(E6) [BC7]] is ____.
result: 80
